- System: A2780 ovarian carcinoma cells
- PROCEDURE SUMMARY: In vitro cytotoxicity testing (MTT assay), A2780
- Assay type: cell-based, human
- PARTICULARS: 6 h exposure; read-out: IC50, A2780, time-dependent cytotoxicity
Listed molecules paired with reported IC50
PROPERTY: IC50 (µM)

>  <MOLECULE>
Brc1cc[n+]([Pt-2]([I])([I])[n+]2ccc(Br)c3cc[nH]c32)c2[nH]ccc12 [Complex 6, cis-[Pt(4Braza)2I2]]

>  <PROPERTY>
IC50

>  <UNITS LABEL>
µM

>  <REPORTED MEASUREMENT>
8.2

$$$$
>  <MOLECULE>
Clc1ccnc2[nH]ccc12.Clc1ccnc2[nH]ccc12.[I][Pt][I] [Complex 5, cis-[Pt(4Claza)2I2]]

>  <PROPERTY>
IC50

>  <UNITS LABEL>
µM

>  <REPORTED MEASUREMENT>
11

$$$$

----------
- Test system: spleen, renal tissue and tumour tissues of L1210 leukaemia-bearing mice
- PROCEDURE SUMMARY: Histological observations (light microscopy, semi-quantitative)
- PARTICULARS: relative scale 0 to 4
As shown below, each of these compounds has a reported Infiltration of spleen (PMN cells) value.

>  <COMPOUND>
N.N.[Cl][Pt][Cl] [Cisplatin, cisplatin, reference compound]

>  <Infiltration of spleen (PMN cells)>
1 (1 = up to 25%)

$$$$
>  <COMPOUND>
Clc1ccnc2[nH]ccc12.Clc1ccnc2[nH]ccc12.[I][Pt][I] [Complex 5, cis-[Pt(4Claza)2I2]]

>  <Infiltration of spleen (PMN cells)>
3 (3 = up to 75%)

$$$$
>  <COMPOUND>
Cc1cc2c(Cl)cc[n+]([Pt-2]([I])([I])[n+]3ccc(Cl)c4cc(C)[nH]c43)c2[nH]1 [Complex 8, cis-[PtI2(2Me4Claza)2]]

>  <Infiltration of spleen (PMN cells)>
1–2

$$$$
>  <COMPOUND>
Brc1cc[n+]([Pt-2]([I])([I])[n+]2ccc(Br)c3cc[nH]c32)c2[nH]ccc12 [Complex 6, cis-[Pt(4Braza)2I2]]

>  <Infiltration of spleen (PMN cells)>
2 (2 = up to 50%)

$$$$

----------
- Tested on: A2780 ovarian carcinoma cells
- PROCEDURE SUMMARY: In vitro cytotoxicity testing (MTT assay), A2780
- Format: cell-based, human
- PARTICULARS: 24 h drug exposure, no recovery, MTT; read-out: IC50±SD, A2780
- Procedure: All cell lines were grown as adherent monolayers at 37°C and 5% CO2 in a humidified atmosphere. The MTT assay was used to determine the cell viability; MTT = 3-(4,5-dimethylthiazol-2-yl)-2,5-diphenyltetrazolium bromide. A concentration of the formed dye was evaluated spectrophotometrically at 540 nm (TECAN, Schoeller Instruments LLC). The data were expressed as the percentage of viability, where 100% and 0% represents the treatments with negative and positive controls, respectively. […]

>  <COMPOUND>
Cc1cc2c(Cl)cc[n+]([Pt-2]([I])([I])[n+]3ccc(Cl)c4cc(C)[nH]c43)c2[nH]1 [Complex 8, cis-[PtI2(2Me4Claza)2]]

>  <IC50 (µM)>
1.7

$$$$
>  <COMPOUND>
Brc1c[nH]c2ncccc12.Brc1c[nH]c2ncccc12.[I][Pt][I] [Complex 3, cis-[Pt(3Braza)2I2]]

>  <IC50 (µM)>
2.8

$$$$
>  <COMPOUND>
Ic1c[nH]c2c1ccc[n+]2[Pt-2]([I])([I])[n+]1cccc2c(I)c[nH]c21 [Complex 4, cis-[PtI2(3Iaza)2]]

>  <IC50 (µM)>
2.3

$$$$

----------
- System: spleen, renal tissue and tumour tissues of L1210 leukaemia-bearing mice
- PROCEDURE SUMMARY: Histological observations (light microscopy, semi-quantitative)
- PARTICULARS: relative scale 0 to 4
Measured Infiltration of renal tissues (PMN cells), listed per entry.
PROPERTY: Infiltration of renal tissues (PMN cells)

>  <COMPOUND>
Clc1ccnc2[nH]ccc12.Clc1ccnc2[nH]ccc12.[I][Pt][I] [Complex 5, cis-[Pt(4Claza)2I2]]

>  <TARGET OR TEST SYSTEM>
spleen, renal tissue and tumour tissues of L1210 leukaemia-bearing mice

>  <REPORTED MEASUREMENT>
1 (1 = up to 25%)

$$$$
>  <COMPOUND>
Brc1cc[n+]([Pt-2]([I])([I])[n+]2ccc(Br)c3cc[nH]c32)c2[nH]ccc12 [Complex 6, cis-[Pt(4Braza)2I2]]

>  <TARGET OR TEST SYSTEM>
spleen, renal tissue and tumour tissues of L1210 leukaemia-bearing mice

>  <REPORTED MEASUREMENT>
1 (1 = up to 25%)

$$$$
>  <COMPOUND>
Cc1cc2c(Cl)cc[n+]([Pt-2]([I])([I])[n+]3ccc(Cl)c4cc(C)[nH]c43)c2[nH]1 [Complex 8, cis-[PtI2(2Me4Claza)2]]

>  <TARGET OR TEST SYSTEM>
spleen, renal tissue and tumour tissues of L1210 leukaemia-bearing mice

>  <REPORTED MEASUREMENT>
0–1

$$$$
